MIC: recorded values
# Test system: E. coli DH5α
# assayText: Antibacterial activity: MIC and growth curve against E. coli DH5α in 96-well plate
# Assay type: cell-based
# assayConditions: minimal inhibitory concentration against E. coli DH5α; 96-well plate, 5×10^5 CFU/mL, 37° C., judged after 8 h

As a guide, the following entries are already answered.
> print(dat)
                                  substance  assayvalue
1  PRT506 (CNCSVAGSVSDGCTDEGQCHCVPGVAGKRCDRCAHGFYAYQDGSCTP; listed as Homo sapiens)    25 µg/mL
2  PRT1307 (HECPGGAETPCNGHGTCLDGMDRNGTCVCQENFRGSACQ; listed as Homo sapiens)  12.5 µg/mL
3  PRT920 (DVDECQLMPNACQNGGTCHNTHGGYNCVCVNGWTGEDCS; listed as Homo sapiens)  12.5 µg/mL

stdin: Dear colleague, I am looking for the recorded MIC of the following substance: PRT1356 (KEQRCPSDCHGQGRCVDGQCICHEGFTGLDCG; listed as Homo sapiens)
stdout: 12.5 µg/mL

stdin: Dear colleague, I am looking for the recorded MIC of the following substance: PRT1369 (ASGSCPDDCNDQGRCVRGRCVCFPGYTGPSC; listed as Homo sapiens)
stdout: 12.5 µg/mL

stdin: Dear colleague, I am looking for the recorded MIC of the following substance: PRT1102 (TIGSCGKNSCQHGGICHQDPIYPVCICPAGYAGRFCE; listed as Homo sapiens)
stdout: 12.5 µg/mL

###

# Tested on: Enterobacter cloacae
# assayText: MIC against Gram-negative bacteria: Enterobacter cloacae
# Format: cell-based
# assayConditions: Enterobacter cloacae; 96-well plate, 5×10^5 CFU/mL, 37° C., 10 h
measuredProperty: MIC against E. cloacae (µg/mL)
The reply should contain only the number, in µg/mL.

As a guide, the following entries are already answered.
> print(dat)
                                  substance    targetortestsystem        measuredproperty  assayvalue
1  PRT1208 (VHHGCEDDPCPEGSECVSDPWEEKHTCVCPSGRFGQCP; listed as Homo sapiens)  Enterobacter cloacae  MIC against E. cloacae        12.5
2  PRT1293 (KLDFCAQDLNPCQHDSKCILTPKGFKCDCTPGYVGEHCD; listed as Homo sapiens)  Enterobacter cloacae  MIC against E. cloacae        12.5
3  PRT1246 (CKELCSCHPHGQCEDVTGQCTCHARRWGARCE; listed as Homo sapiens)  Enterobacter cloacae  MIC against E. cloacae          50
4  PRT1260 (DINECLVNNGGCDHFCRNTVGSFECGCRKGYKLLTDERTCQ; listed as Homo sapiens)  Enterobacter cloacae  MIC against E. cloacae          25

stdin: Dear colleague, I am looking for the recorded MIC against E. cloacae of the following substance: PRT1235 (IGPQCEEMCNGQGSCINGTKCICDPGYSGPTCK; listed as Homo sapiens)
stdout: 25

stdin: Dear colleague, I am looking for the recorded MIC against E. cloacae of the following substance: PRT1307 (HECPGGAETPCNGHGTCLDGMDRNGTCVCQENFRGSACQ; listed as Homo sapiens)
stdout: 100

stdin: Dear colleague, I am looking for the recorded MIC against E. cloacae of the following substance: PRT1229 (DINECETGLAKCKYKAYCRNKVGGYICSCLVKYTLFNFLAGIIDYDHPDCY; listed as Homo sapiens)
stdout: 25

stdin: Dear colleague, I am looking for the recorded MIC against E. cloacae of the following substance: PRT1218 (DINECEREECENGGSCVNVFGSFLCNCTPGYVGQYCG; listed as Homo sapiens)
stdout: 12.5

stdin: Dear colleague, I am looking for the recorded MIC against E. cloacae of the following substance: PRT1330 (VVDFCKQDNGGCAKVARCSQKGTKVSCSCQKGYKGDGHSCT; listed as Homo sapiens)
stdout: 50

stdin: Dear colleague, I am looking for the recorded MIC against E. cloacae of the following substance: PRT1232 (IGQQCPNMCSGHGSCDHGICRCDQGYQGTECH; listed as Homo sapiens)
stdout: 25

stdin: Dear colleague, I am looking for the recorded MIC against E. cloacae of the following substance: PRT1285 (NQDDCRDHRCQNGAQCMDEVNSYSCLCAEGYSGQLCE; listed as Homo sapiens)
stdout: 12.5

###

# Test system: Moraxella catarrhalis
# assayText: MIC against Gram-negative bacteria: Moraxella catarrhalis
# Format: cell-based
# assayConditions: 10 h cultivation at 37° C., 5×10^5 CFU/mL, two-fold serial dilution
MIC M. catarrhalis: recorded values
The reply should contain only the number, in µg/mL.

> print(dat)
                                  substance     targetortestsystem    measuredproperty  assayvalue
1  PRT1167 (NINDCESNPCRNGGTCIDGVNSYKCICSDGWEGAYCE; listed as Homo sapiens)  Moraxella catarrhalis  MIC M. catarrhalis          25

stdin: Dear colleague, I am looking for the recorded MIC M. catarrhalis of the following substance: PRT1168 (NINDCSQNPCHNGGTCRDLVNDFYCDCKNGWKGKTCH; listed as Homo sapiens)
stdout: 50

stdin: Dear colleague, I am looking for the recorded MIC M. catarrhalis of the following substance: PRT1082 (GTNPCSVNNGDCSQLCLPTSETTRSCMCTAGYSLRSGQQACE; listed as Homo sapiens)
stdout: 50

stdin: Dear colleague, I am looking for the recorded MIC M. catarrhalis of the following substance: PRT1147 (ELDACSFKPCKNNGSCINKRENWDEQAYECVCHPPFTGKNCS; listed as Homo sapiens)
stdout: 12.5

stdin: Dear colleague, I am looking for the recorded MIC M. catarrhalis of the following substance: PRT1086 (HFKPCRDKDLAYCLNDGECFVIETLTGSHKHCRCKEGYQGVRCD; listed as Homo sapiens)
stdout: 25

stdin: Dear colleague, I am looking for the recorded MIC M. catarrhalis of the following substance: PRT1180 (DIDYCEPNPCQNGAQCYNRASDYFCKCPEDYEGKNCS; listed as Homo sapiens)
stdout: 12.5

###

# Test system: Moraxella catarrhalis
# assayText: MIC against Gram-negative bacteria: Moraxella catarrhalis
# Format: cell-based
# assayConditions: M. catarrhalis; 10 h cultivation at 37° C.; 5×10^5 CFU/mL
measuredProperty: MIC (μg/mL) M. catarrhalis (µg/mL)
The reply should contain only the number, in µg/mL.

As a guide, the following entries are already answered.
> print(dat)
                                  substance     targetortestsystem  unitinfo  assayvalue
1  PRT216 (DIDECTAGTHNCRADQVCINLRGSFACQCPPGYQKRGEQCV; listed as Homo sapiens)  Moraxella catarrhalis     µg/mL          50
2  PRT818 (DCRSACNCTAGAACDAVNGSCLCPAGRRGPRCA; listed as Homo sapiens)  Moraxella catarrhalis     µg/mL          25
3  PRT155 (APGPCAAQPCRNGGVCTSRPEPDPQHPAPAGEPGYSCTCPAGISGANCQ; listed as Homo sapiens)  Moraxella catarrhalis     µg/mL          25

stdin: Dear colleague, I am looking for the recorded MIC (μg/mL) M. catarrhalis of the following substance: PRT187 (KVDRCTSNPCANGGQCLNRGPSRMCRCRPGFTGTYCE; listed as Homo sapiens)
stdout: 12.5

stdin: Dear colleague, I am looking for the recorded MIC (μg/mL) M. catarrhalis of the following substance: PRT889 (DVNECVSNPCQNDATCLDQIGEFQCICMPGYEGVHCE; listed as Homo sapiens)
stdout: 12.5

stdin: Dear colleague, I am looking for the recorded MIC (μg/mL) M. catarrhalis of the following substance: PRT185 (ELSECDSNPCRNGGSCKDQEDGYHCLCPPGYYGLHCE; listed as Homo sapiens)
stdout: 50

stdin: Dear colleague, I am looking for the recorded MIC (μg/mL) M. catarrhalis of the following substance: PRT873 (CECYGHSNRCSYIDFLNVVTCVSCKHNTRGQHCQHCRLGYYRNGSAELDDENVCIE; listed as Homo sapiens)
stdout: 12.5

stdin: Dear colleague, I am looking for the recorded MIC (μg/mL) M. catarrhalis of the following substance: PRT752 (TAHMCSTLEHNCAHFCINIPGSYVCRCKQGYILNSDQTTCR; listed as Homo sapiens)
stdout: 25

stdin: Dear colleague, I am looking for the recorded MIC (μg/mL) M. catarrhalis of the following substance: PRT887 (LNDACISNPCNEGSNCDTNPVNGKAICTCPSGYTGPACS; listed as Homo sapiens)
stdout: 25

stdin: Dear colleague, I am looking for the recorded MIC (μg/mL) M. catarrhalis of the following substance: PRT165 (DVRACSSAPCANNGTCVSLDDGLYECSCAPGYSGKDCQ; listed as Homo sapiens)
stdout: 25
